Data origin, for the record: ChEMBL document CHEMBL5291721

Hi! I'm sharing some AC50 results obtained with Progesterone receptor (Homo sapiens, UniProt P06401).
Sequence (P06401 whole entry): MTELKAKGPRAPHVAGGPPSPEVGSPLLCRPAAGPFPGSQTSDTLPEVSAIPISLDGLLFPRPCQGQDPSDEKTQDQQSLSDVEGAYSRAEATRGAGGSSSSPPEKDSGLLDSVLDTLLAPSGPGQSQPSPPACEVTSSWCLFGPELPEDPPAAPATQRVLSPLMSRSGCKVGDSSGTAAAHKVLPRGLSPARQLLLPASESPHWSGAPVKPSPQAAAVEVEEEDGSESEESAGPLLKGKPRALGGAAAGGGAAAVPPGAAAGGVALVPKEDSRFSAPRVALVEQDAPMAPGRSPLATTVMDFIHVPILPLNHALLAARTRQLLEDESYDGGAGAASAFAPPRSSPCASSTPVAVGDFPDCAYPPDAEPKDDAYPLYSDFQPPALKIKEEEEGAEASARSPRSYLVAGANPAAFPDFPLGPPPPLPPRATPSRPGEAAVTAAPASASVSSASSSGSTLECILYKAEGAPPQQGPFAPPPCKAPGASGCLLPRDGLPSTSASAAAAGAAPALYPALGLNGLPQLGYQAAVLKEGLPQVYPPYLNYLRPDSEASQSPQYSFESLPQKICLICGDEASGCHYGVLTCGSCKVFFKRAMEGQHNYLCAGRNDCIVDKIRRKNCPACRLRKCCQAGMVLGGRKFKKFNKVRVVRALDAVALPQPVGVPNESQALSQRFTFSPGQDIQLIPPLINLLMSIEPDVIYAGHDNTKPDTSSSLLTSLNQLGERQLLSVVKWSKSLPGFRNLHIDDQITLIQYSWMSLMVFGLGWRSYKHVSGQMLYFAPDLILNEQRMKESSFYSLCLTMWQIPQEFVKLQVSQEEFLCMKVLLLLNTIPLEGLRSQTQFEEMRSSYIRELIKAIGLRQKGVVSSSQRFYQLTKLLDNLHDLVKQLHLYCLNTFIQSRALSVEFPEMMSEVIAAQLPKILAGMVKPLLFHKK

Example compounds with recorded AC50:
compound | AC50
COCCCOc1ccnc(C[S+]([O-])c2nc3ccccc3[nH]2)c1C (stereo unspecified) | > 30 µM
CNC[C@H](O)c1cccc(O)c1 | > 30 µM
C[C@H]1C[C@H]2[C@@H]3CCC4=CC(=O)C=C[C@]4(C)[C@@]3(Cl)[C@@H](O)C[C@]2(C)[C@@]1(O)C(=O)CO | > 30 µM
CC(=O)OCC[N+](C)(C)C | > 30 µM
CCCN(CCC)CCc1cccc2c1CC(=O)N2 | > 30 µM

Below is a list of compounds. For each, state its recorded AC50.
1. CC(C)CC(N(C)C)C1(c2ccc(Cl)cc2)CCC1 (stereo unspecified)
2. CC1(C)S[C@@H]2[C@H](NC(=O)[C@H](N)c3ccc(O)cc3)C(=O)N2[C@H]1C(=O)O
3. CCn1cc(C(=O)O)c(=O)c2cc(F)c(N3CCNCC3)nc21
4. C[C@]1(COc2ccc(N3CCC(Oc4ccc(OC(F)(F)F)cc4)CC3)cc2)Cn2cc([N+](=O)[O-])nc2O1
5. COC1=C(OC)C(=O)C(CCCCCCCCCCO)=C(C)C1=O

> 30 µM
> 30 µM
> 30 µM
> 30 µM
27.6 µM

Would you mind telling me what AC50 value was observed for NCCCC(O)(P(=O)(O)O)P(=O)(O)O ?
> 30 µM

---

- target_system: 5-hydroxytryptamine receptor 1A (Homo sapiens); further: assay procedure not described here
- Sequence (P08908 whole entry): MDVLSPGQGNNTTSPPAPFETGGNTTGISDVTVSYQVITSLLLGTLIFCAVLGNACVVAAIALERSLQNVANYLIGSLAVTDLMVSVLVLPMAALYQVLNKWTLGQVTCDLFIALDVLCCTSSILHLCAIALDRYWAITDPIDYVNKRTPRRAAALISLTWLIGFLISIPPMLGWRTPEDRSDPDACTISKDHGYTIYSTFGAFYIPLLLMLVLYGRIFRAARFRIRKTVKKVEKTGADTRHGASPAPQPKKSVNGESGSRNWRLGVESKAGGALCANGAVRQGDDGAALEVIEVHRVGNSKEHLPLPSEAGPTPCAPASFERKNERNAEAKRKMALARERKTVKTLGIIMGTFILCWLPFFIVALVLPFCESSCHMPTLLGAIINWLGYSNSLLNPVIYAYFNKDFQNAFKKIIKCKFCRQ
Provide the reported AC50 of each item.

Below, 3 compounds whose answers are already recorded.
compound | measurement_kind | result
CCc1oc2ccccc2c1C(=O)c1cc(Br)c(O)c(Br)c1 [BENZBROMARONE] | AC50 | > 10 µM
CCCN(CCC)CCc1cccc2c1CC(=O)N2 [ROPINIROLE] | AC50 | 8.15 µM
C[C@]1(COc2ccc(N3CCC(Oc4ccc(OC(F)(F)F)cc4)CC3)cc2)Cn2cc([N+](=O)[O-])nc2O1 | AC50 | > 10 µM

Kindly give each listed record's AC50.
1. C[C@H]1C[C@H]2[C@@H]3CCC4=CC(=O)C=C[C@]4(C)[C@@]3(Cl)[C@@H](O)C[C@]2(C)[C@@]1(O)C(=O)CO [BECLOMETHASONE]
2. COCCCOc1ccnc(C[S+]([O-])c2nc3ccccc3[nH]2)c1C (centres undefined) [RABEPRAZOLE]
3. COC1=C(OC)C(=O)C(CCCCCCCCCCO)=C(C)C1=O [IDEBENONE]
4. Clc1cccc(Cl)c1N=C1NCCN1 [CLONIDINE]
5. CC(CCc1ccccc1)NC(C)C(O)c1ccc(O)cc1 (centres undefined) [NYLIDRIN]
6. O=C1CN2Cc3c(ccc(Cl)c3Cl)N=C2N1 [ANAGRELIDE]

> 10 µM
> 10 µM
> 10 µM
> 10 µM
3.38 µM
> 10 µM

---

- target_system: Voltage-dependent L-type calcium channel subunit alpha-1C (Rattus norvegicus); further: assay procedure not described here
- Sequence (P22002 whole entry): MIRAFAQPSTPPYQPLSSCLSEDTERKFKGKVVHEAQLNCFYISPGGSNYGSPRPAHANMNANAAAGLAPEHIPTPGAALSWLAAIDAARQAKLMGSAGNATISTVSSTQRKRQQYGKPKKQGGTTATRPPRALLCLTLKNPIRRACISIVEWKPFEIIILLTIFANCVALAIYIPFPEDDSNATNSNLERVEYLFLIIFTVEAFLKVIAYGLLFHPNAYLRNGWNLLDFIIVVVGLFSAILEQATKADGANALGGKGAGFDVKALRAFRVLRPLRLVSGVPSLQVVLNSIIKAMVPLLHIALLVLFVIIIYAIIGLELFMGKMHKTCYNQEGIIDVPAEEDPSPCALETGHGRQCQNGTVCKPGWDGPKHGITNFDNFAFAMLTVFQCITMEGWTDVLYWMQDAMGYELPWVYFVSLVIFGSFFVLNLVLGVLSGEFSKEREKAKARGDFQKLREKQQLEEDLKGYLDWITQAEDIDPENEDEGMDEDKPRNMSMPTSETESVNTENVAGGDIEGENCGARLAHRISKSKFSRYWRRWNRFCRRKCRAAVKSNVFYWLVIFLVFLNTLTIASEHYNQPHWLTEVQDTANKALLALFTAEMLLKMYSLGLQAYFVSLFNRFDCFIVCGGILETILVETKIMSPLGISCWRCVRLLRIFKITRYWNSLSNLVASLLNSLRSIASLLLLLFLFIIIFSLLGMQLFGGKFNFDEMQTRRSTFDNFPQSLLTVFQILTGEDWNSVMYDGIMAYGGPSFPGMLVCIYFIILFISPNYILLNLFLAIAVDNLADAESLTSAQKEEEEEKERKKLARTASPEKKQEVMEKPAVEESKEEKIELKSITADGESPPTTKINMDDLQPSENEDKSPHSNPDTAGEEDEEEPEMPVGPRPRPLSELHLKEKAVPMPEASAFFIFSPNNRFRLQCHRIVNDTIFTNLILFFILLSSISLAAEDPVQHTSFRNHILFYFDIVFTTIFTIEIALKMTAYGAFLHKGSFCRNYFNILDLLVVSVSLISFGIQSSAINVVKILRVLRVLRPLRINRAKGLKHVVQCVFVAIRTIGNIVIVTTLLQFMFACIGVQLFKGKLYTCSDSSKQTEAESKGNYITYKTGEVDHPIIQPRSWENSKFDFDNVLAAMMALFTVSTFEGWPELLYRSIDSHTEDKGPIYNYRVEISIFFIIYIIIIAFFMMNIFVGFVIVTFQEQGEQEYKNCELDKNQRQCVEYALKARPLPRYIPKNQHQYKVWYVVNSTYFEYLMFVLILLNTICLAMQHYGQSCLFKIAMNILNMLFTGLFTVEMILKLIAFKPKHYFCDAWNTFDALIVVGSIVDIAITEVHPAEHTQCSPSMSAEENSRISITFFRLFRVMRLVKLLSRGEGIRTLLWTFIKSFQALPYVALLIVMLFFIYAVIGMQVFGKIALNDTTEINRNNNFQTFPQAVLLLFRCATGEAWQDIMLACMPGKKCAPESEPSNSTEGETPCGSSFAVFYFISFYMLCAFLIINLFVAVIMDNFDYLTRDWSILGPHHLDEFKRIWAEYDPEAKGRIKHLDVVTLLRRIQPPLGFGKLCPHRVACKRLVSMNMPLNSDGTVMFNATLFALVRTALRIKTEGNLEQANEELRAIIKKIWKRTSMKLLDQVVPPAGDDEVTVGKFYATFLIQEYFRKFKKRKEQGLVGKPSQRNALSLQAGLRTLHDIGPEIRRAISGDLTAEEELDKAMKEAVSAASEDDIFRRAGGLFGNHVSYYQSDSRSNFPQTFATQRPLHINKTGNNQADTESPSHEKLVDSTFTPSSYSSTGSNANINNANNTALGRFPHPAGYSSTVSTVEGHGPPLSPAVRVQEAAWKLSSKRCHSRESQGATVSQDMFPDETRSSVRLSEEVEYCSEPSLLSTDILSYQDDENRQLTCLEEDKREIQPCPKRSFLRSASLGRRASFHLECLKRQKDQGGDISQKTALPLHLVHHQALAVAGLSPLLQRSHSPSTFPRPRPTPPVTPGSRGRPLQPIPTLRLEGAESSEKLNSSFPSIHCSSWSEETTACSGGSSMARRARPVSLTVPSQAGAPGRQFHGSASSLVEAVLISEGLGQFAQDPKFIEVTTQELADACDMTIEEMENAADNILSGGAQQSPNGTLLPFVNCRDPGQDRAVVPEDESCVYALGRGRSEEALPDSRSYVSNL
- Assay type: functional
measurement_kind: AC50

Guide cases for AC50, answers given:
molecule | result
NS(=O)(=O)c1cc(C(=O)O)cc(N2CCCC2)c1Oc1ccccc1 [PIRETANIDE] | > 30 µM
C[C@]1(COc2ccc(N3CCC(Oc4ccc(OC(F)(F)F)cc4)CC3)cc2)Cn2cc([N+](=O)[O-])nc2O1 | > 10 µM
CCn1cc(C(=O)O)c(=O)c2cc(F)c(N3CCNCC3)nc21 [ENOXACIN] | > 10 µM
CC(C)OC(=O)C(C(=O)OC(C)C)=C1SC=CS1 [MALOTILATE] | > 30 µM
O=C(O)c1cc(O)c2c3nc4ccccc4oc-3cc(=O)c2n1 [PIRENOXINE] | 0.72 µM

Please find the next molecule below.
# lookup: AC50 of CCCN(CC)C(CC)C(=O)Nc1c(C)cccc1C (stereo unspecified) [ETIDOCAINE]
> 30 µM

---

Observed AC50 for Adenosine receptor A2a (Homo sapiens), reported per entry below.

# annotated cases, reported AC50 shown
molecule | result
CC(=O)Oc1ccccc1C(=O)Nc1ncc([N+](=O)[O-])s1 [NITAZOXANIDE] | 8.8 µM
N=C(N)NCCCCCCC(=O)NC(O)C(=O)NCCCCNCCCN (centres undefined) | > 30 µM
O=c1oc2ccccc2c(O)c1Cc1c(O)c2ccccc2oc1=O [DICUMAROL] | > 10 µM

Parameter requested: AC50. Apply to each item below.
1. CCCN(CC)C(CC)C(=O)Nc1c(C)cccc1C (centres undefined) [ETIDOCAINE]
2. CCC(=O)OCC(=O)[C@@]1(OC(=O)CC)[C@@H](C)C[C@H]2[C@@H]3CCC4=CC(=O)C=C[C@]4(C)[C@@]3(F)[C@@H](O)C[C@@]21C [BETAMETHASONE DIPROPIONATE]
3. CCn1cc(C(=O)O)c(=O)c2cc(F)c(N3CCN(C)CC3)cc21 [PEFLOXACIN]
4. O=C1CN=C(c2ccccc2)c2cc(Cl)ccc2N1 [NORDAZEPAM]
5. CN1CCN(c2c(F)cc3c(=O)c(C(=O)O)cn4c3c2SCC4)CC1 [RUFLOXACIN]

1: > 30 µM; 2: > 30 µM; 3: > 30 µM; 4: > 30 µM; 5: > 30 µM

Sample CC(C)=CCOc1ccc(/C=C/C(=O)c2ccc(OCC=C(C)C)cc2OCC(=O)O)cc1 [SOFALCONE] — what was its AC50?
> 30 µM

---

- target_system: cGMP-inhibited 3',5'-cyclic phosphodiesterase 3A (Homo sapiens); further: assay procedure not described here
- Sequence (Q14432 whole entry): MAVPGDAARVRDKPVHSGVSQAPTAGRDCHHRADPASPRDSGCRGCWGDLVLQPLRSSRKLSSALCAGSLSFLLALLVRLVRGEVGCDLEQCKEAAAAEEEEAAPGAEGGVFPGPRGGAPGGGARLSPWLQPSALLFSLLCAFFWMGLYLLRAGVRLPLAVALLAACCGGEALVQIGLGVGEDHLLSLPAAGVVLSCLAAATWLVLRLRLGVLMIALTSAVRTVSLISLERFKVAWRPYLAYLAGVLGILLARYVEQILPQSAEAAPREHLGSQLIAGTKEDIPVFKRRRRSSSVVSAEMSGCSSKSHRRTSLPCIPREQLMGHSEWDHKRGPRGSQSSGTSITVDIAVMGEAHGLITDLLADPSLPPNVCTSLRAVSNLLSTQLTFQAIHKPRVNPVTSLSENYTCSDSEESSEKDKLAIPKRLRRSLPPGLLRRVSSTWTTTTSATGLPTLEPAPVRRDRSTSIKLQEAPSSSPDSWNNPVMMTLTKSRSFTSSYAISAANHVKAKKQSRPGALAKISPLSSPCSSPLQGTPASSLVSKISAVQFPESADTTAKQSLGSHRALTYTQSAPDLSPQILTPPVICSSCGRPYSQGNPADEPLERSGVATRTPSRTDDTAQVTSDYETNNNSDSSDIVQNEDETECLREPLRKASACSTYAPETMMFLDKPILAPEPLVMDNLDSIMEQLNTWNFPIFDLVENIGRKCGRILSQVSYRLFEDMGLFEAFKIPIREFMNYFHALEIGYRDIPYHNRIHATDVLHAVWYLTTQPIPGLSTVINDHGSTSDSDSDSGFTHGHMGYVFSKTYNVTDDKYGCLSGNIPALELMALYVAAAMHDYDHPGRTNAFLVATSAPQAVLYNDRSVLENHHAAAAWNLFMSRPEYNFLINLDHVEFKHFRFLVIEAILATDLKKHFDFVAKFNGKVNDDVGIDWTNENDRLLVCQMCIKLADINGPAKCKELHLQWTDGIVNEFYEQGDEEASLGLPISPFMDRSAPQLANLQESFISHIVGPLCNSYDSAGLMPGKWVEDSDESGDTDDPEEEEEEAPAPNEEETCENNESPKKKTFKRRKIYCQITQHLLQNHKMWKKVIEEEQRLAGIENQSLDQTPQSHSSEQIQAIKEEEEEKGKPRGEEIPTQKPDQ
- Format: functional
Answer each item with its documented AC50.

Illustrative cases are given below, each with its answer.
molecule | AC50
[H]/N=C(/N)N[C@H]1[C@H](O)[C@@H](O)[C@H](O[C@@H]2O[C@@H](C)[C@](O)(C=O)[C@H]2O[C@@H]2O[C@@H](CO)[C@H](O)[C@@H](O)[C@@H]2NC)[C@@H](N/C(N)=N\[H])[C@@H]1O | > 30 µM
CC(C)N(CCCCOCC(=O)NS(C)(=O)=O)c1cnc(-c2ccccc2)c(-c2ccccc2)n1 | > 30 µM
Clc1ccc(C(Cn2ccnc2)OCc2ccc(Sc3ccccc3)cc2)c(Cl)c1 (configuration not stated) | > 30 µM
CN(c1nccc(=O)[nH]1)C1CCN(c2nc3ccccc3n2Cc2ccc(F)cc2)CC1 | 6.1 µM

Hello, I would appreciate it if you could give AC50 for each entry below.
1. CN1CCN(CCCN2c3ccccc3Sc3ccc(S(=O)(=O)N(C)C)cc32)CC1
2. CO/N=C(\C(=O)N[C@@H]1C(=O)N2C(C(=O)[O-])=C(C[n+]3cccc4c3CCC4)CS[C@H]12)c1csc(N)n1
3. CNCC[C@H](Oc1cccc2ccccc12)c1cccs1
4. CC(=O)S[C@@H]1CC2=CC(=O)CC[C@]2(C)[C@H]2CC[C@@]3(C)[C@@H](CC[C@@]34CCC(=O)O4)[C@H]12
5. CCCC[C@H](C)C[C@H](O)/C=C/[C@H]1[C@H](O)CC(=O)[C@@H]1CCCC/C=C/C(=O)O
6. Cc1ccc(=O)n(-c2ccccc2)c1
7. CCn1cc(C(=O)O)c(=O)c2cc(F)c(N3CCNCC3)nc21

1: > 30 µM; 2: > 30 µM; 3: > 30 µM; 4: > 30 µM; 5: > 30 µM; 6: > 30 µM; 7: > 30 µM

Please report AC50 for every entry that follows.
1. CCN(CC)CCOC(=O)c1ccc(N)cc1Cl
2. C#Cc1cccc(Nc2ncnc3cc(OCCOC)c(OCCOC)cc23)c1
3. CCC(C)(Oc1ccc(C2(c3ccc(OC(C)(CC)C(=O)O)cc3)CCCCC2)cc1)C(=O)O (configuration not stated) [CLINOFIBRATE]
4. COC(=O)N[C@@H](C)CNc1nccc(-c2cn(C(C)C)nc2-c2cc(Cl)cc(NS(C)(=O)=O)c2F)n1
5. CC(C)CC(N(C)C)C1(c2ccc(Cl)cc2)CCC1 (configuration not stated)
6. COc1ccnc(C[S+]([O-])c2nc3ccc(OC(F)F)cc3[nH]2)c1OC (configuration not stated)
7. CNC(=O)Oc1ccc2c(c1)[C@]1(C)CCN(C)[C@@H]1N2C

> 30 µM
> 30 µM
> 30 µM
25 µM
> 30 µM
> 30 µM
> 30 µM

Report AC50 for every entry below.
1. C[C@H]1Oc2cc(cnc2N)-c2c(nn(C)c2C#N)CN(C)C(=O)c2ccc(F)cc21
2. Nc1nc2c(c(=O)[nH]1)N(C=O)C(CNc1ccc(C(=O)N[C@@H](CCC(=O)O)C(=O)O)cc1)CN2 (some centres not stated)
3. Cc1cc(CC(=O)O)n(C)c1C(=O)c1ccc(Cl)cc1 [ZOMEPIRAC]
4. C[C@@H]1CCC[C@H](C)N1NC(=O)c1ccc(Cl)c(S(N)(=O)=O)c1 [CLOPAMIDE]

> 30 µM
> 30 µM
> 30 µM
> 30 µM

// input: 4 molecules below; output: AC50 for each
1. O=C1CN=C(c2ccccc2)c2cc(Cl)ccc2N1
2. CC(=O)OCC(=O)[C@@]1(O)CC[C@H]2[C@@H]3CCC4=CC(=O)CC[C@]4(C)C3=CC[C@@]21C [ANECORTAVE ACETATE]
3. CC[N+]1(C)CCCC(OC(=O)C(O)(c2ccccc2)c2ccccc2)C1 (configuration not stated) [PIPENZOLATE]
4. COCCOC(=O)C1=C(C)NC(C)=C(C(=O)OC/C=C/c2ccccc2)C1c1cccc([N+](=O)[O-])c1 (configuration not stated)

1: > 30 µM; 2: > 30 µM; 3: > 30 µM; 4: > 30 µM
